Could you please report measured IC50 for the items listed next?
biological target: DYRK1B (Homo sapiens); construct: full-length human kinases from Carna Biosciences; purchased Carna Biosciences 04-131; assay: Kinase TR-FRET assay, DYRK1B; type: biochemical
Sequence (Q9Y463 whole entry): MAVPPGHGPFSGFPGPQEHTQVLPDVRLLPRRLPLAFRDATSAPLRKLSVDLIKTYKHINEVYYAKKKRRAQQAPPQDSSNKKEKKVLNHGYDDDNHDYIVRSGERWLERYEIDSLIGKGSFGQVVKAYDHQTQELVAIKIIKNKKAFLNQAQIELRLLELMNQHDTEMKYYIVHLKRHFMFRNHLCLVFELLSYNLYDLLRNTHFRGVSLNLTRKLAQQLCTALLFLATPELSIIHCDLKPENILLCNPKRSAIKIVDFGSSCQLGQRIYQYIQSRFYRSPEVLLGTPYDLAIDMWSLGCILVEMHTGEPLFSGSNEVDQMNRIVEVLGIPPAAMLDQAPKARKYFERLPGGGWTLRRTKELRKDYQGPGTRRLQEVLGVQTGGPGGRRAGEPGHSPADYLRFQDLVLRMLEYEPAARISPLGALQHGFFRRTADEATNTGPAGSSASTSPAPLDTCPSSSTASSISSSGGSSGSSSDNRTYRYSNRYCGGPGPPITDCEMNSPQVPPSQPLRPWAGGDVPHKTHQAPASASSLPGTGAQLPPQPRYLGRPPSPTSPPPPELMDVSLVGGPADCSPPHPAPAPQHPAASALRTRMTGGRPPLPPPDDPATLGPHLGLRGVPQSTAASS
One number for each entry, in µM.

Known IC50 results, listed for orientation:
{"Molecule": "COc1cccc(C(F)(F)F)c1CNc1nc(C)nc2[nH]cc(-c3ccnc(N)c3)c12 [Example 80]", "IC50 [µM]": 0.0106}
{"Molecule": "Cc1nc(N2CCc3sccc3C2)c2c(-c3ccnc(N)c3)c[nH]c2n1 [Example 108]", "IC50 [µM]": 0.0092}
{"Molecule": "Nc1cc(-c2c[nH]c3nc(C#CC4CC4)cc(NCc4c(F)cccc4F)c23)ccn1 [Example 216]", "IC50 [µM]": 0.0219}
{"Molecule": "Cc1nc(NCc2c(F)cccc2F)c2c(-c3cc(N)nc(N)c3)c[nH]c2n1 [Example 115]", "IC50 [µM]": 0.0094}
{"Molecule": "Cc1nc(NCc2c(F)cccc2F)c2c(-c3ccnc(N)n3)c[nH]c2n1 [Example 206]", "IC50 [µM]": 0.0133}
{"Molecule": "Cc1nc(NCc2cc(C)on2)c2c(-c3ccnc(N)c3)c[nH]c2n1 [Example 59]", "IC50 [µM]": 0.0191}
{"Molecule": "Cc1nc(NCc2c(F)cncc2F)c2c(-c3ccnc(N)c3)c[nH]c2n1 [Example 119]", "IC50 [µM]": 0.0192}
{"Molecule": "Cc1nc(NCc2ccccc2Cl)c2c(-c3ccnc(N)c3)c[nH]c2n1 [Example 57]", "IC50 [µM]": 0.0098}

State, in one line, measured IC50 of Cc1nc(OCc2ccc(C#N)cc2)c2c(-c3ccnc(N)c3)c[nH]c2n1 [Example 25]
0.0079

* * *

target: His-TEV-DYRK1A Kinase domain (aa127-485) (Homo sapiens, UniProt Q13627); construct: His-TEV-DYRK1A Kinase domain (aa127-485); His (N); TEV cleavage site (N); experiment: Kinase ADP assay (ADP Hunter Plus); assay type: biochemical
Rule: measured IC50 below 0.03 µM gets YES; anything equal to or greater than 0.03 µM gets NO.

Examples with answers:
{"Compound": "Cc1nc(N2CCOCC2)c2c(-c3cc(N)nc(N)c3)c[nH]c2n1", "Study system": "His-TEV-DYRK1A Kinase domain (aa127-485) (Homo sapiens, UniProt Q13627)", "Assigned label": "NO"}
{"Compound": "Cc1nc(NCc2cccc3c2OCO3)c2c(-c3ccnc(N)c3)c[nH]c2n1", "Study system": "His-TEV-DYRK1A Kinase domain (aa127-485) (Homo sapiens, UniProt Q13627)", "Assigned label": "YES"}

IC50 strictly < 0.03 µM for this compound? Cc1nc(-c2cccc(OCCCN3CCN(C)CC3)c2)c2c(-c3ccnc(N)c3)c[nH]c2n1
YES

IC50 strictly < 0.03 µM for this compound? Cc1nc(N[C@@H](C)c2ncccc2F)c2c(-c3ccnc(N)c3)c[nH]c2n1
NO

IC50 strictly < 0.03 µM for this compound? Cc1nc(OCc2ccc(C(C)C)cc2)c2c(-c3ccnc(N)c3)c[nH]c2n1
NO

IC50 strictly < 0.03 µM for this compound? COC1CCCN(c2nc(C)nc3[nH]cc(-c4ccnc(N)c4)c23)C1 (centres unmarked)
NO

IC50 strictly < 0.03 µM for this compound? Cc1nc(C#CC2CC2)c2c(-c3cc(N)nc(N)c3)c[nH]c2n1
YES

IC50 strictly < 0.03 µM for this compound? Cc1nc(NCc2cccc3c2OCO3)c2c(-c3cc(N)nc(N)c3)c[nH]c2n1
YES

* * *

target: His-TEV-DYRK1A Kinase domain (aa127-485) (Homo sapiens); construct: His-TEV-DYRK1A Kinase domain (aa127-485); His (N); TEV cleavage site (N); test: Kinase ADP assay (ADP Hunter Plus); assay type: biochemical
Could you please report measured IC50 for the items listed next?
Answers are plain numbers, in µM.

Known IC50 results, listed for orientation:
{"Compound": "COc1cccnc1C(C)Nc1nc(C)nc2[nH]cc(-c3ccnc(N)c3)c12 (centres unmarked) [Example 113]", "Quantity measured": "IC50", "Result": 0.114}
{"Compound": "Cc1nc(OCC2CCCO2)c2c(-c3ccncc3)c[nH]c2n1 (centres unmarked) [Example 14]", "Quantity measured": "IC50", "Result": 0.043}
{"Compound": "Cc1ccc2sc(-c3nc(C)nc4[nH]cc(-c5ccnc(N)c5)c34)cc2c1 [Example 184]", "Quantity measured": "IC50", "Result": 0.012}
{"Compound": "Cc1nc(-c2ccc3c(c2)OC(F)(F)O3)c2c(-c3ccnc(N)c3)c[nH]c2n1 [Example 164]", "Quantity measured": "IC50", "Result": 0.015}
{"Compound": "Cc1nc(NCCc2ccccn2)c2c(-c3ccnc(N)c3)c[nH]c2n1 [Example 124]", "Quantity measured": "IC50", "Result": 0.296}
{"Compound": "Cc1nc([C@H]2CCc3ccccc3C2)c2c(-c3ccnc(N)c3)c[nH]c2n1 [Example 189]", "Quantity measured": "IC50", "Result": 0.062}
{"Compound": "Cc1cc(-c2ccc3c(c2)OCCO3)c2c(-c3ccnc(N)c3)c[nH]c2n1 [Example 217]", "Quantity measured": "IC50", "Result": 0.01}
{"Compound": "Cc1nc(COc2ccccc2C(F)(F)F)c2c(-c3ccnc(N)c3)c[nH]c2n1 [Example 193]", "Quantity measured": "IC50", "Result": 0.116}
{"Compound": "Cc1nc(NCc2ccccc2C(F)(F)F)c2c(-c3ccnc(N)c3)c[nH]c2n1 [Example 64]", "Quantity measured": "IC50", "Result": 0.015}
{"Compound": "Nc1cc(-c2c[nH]c3nc(C#CC4CC4)cc(-c4ccc5c(c4)OCO5)c23)cc(N)n1 [Example 218]", "Quantity measured": "IC50", "Result": 0.015}

State recorded IC50 for all listed compounds.
1. Cc1cc(NCc2c(F)cccc2F)c2c(-c3ccnc(N)c3)c[nH]c2n1 [Example 213]
2. COc1cc(F)cc(-c2nc(C)nc3[nH]cc(-c4ccnc(N)c4)c23)c1 [Example 162]
3. Cc1nc(N2CCCC(C)C2)c2c(-c3ccnc(N)c3)c[nH]c2n1 (centres unmarked) [Example 97]
4. Cc1nc(NCc2c(Cl)cccc2Cl)c2c(-c3ccnc(N)c3)c[nH]c2n1 [Example 61]

1. 0.008
2. 0.014
3. 0.063
4. 0.01

* * *

molecular target: phospho-Ser520-DYRK1A (Homo sapiens, UniProt Q13627); construct: full-length, wild-type human DYRK1A (NM_001396) with an HA tag; expressed in transfected cells; host or cells: human U2-OS osteosarcoma cells, pcDNA3.1 plasmid; test: Cellular DYRK1A autophosphorylation assay in U2-OS cells; assay type: cell-based; conditions: 5 hours exposure, read-out: IC50 (μM) P-Ser520-Dyrk1A-Cell assay
Could you please report measured IC50 for the items listed next?
Give bare numbers, in µM.

{"Cpd smiles": "Cc1nc(OCc2ccc(C#N)cc2)c2c(-c3ccnc(N)c3)c[nH]c2n1", "Study system": "phospho-Ser520-DYRK1A (Homo sapiens, UniProt Q13627)", "Quantity measured": "IC50", "Unit symbol": "µM", "Result": 0.036}
{"Cpd smiles": "Cc1nc(NCc2cccc3c2OCO3)c2c(-c3ccnc(N)c3)c[nH]c2n1", "Study system": "phospho-Ser520-DYRK1A (Homo sapiens, UniProt Q13627)", "Quantity measured": "IC50", "Unit symbol": "µM", "Result": 0.0169}
{"Cpd smiles": "Nc1cc(-c2c[nH]c3nc(C#CC4CC4)cc(NCc4c(F)cccc4F)c23)ccn1", "Study system": "phospho-Ser520-DYRK1A (Homo sapiens, UniProt Q13627)", "Quantity measured": "IC50", "Unit symbol": "µM", "Result": 0.0807}
{"Cpd smiles": "Cc1nc(NCc2c(F)cccc2Cl)c2c(-c3ccnc(N)c3)c[nH]c2n1", "Study system": "phospho-Ser520-DYRK1A (Homo sapiens, UniProt Q13627)", "Quantity measured": "IC50", "Unit symbol": "µM", "Result": 0.021}
{"Cpd smiles": "Cc1nc(-c2cc(F)c3c(c2)OCO3)c2c(-c3ccnc(N)c3)c[nH]c2n1", "Study system": "phospho-Ser520-DYRK1A (Homo sapiens, UniProt Q13627)", "Quantity measured": "IC50", "Unit symbol": "µM", "Result": 0.0443}
{"Cpd smiles": "Nc1cc(-c2c[nH]c3nc(C#CC4CC4)cc(-c4ccc5c(c4)OCO5)c23)ccn1", "Study system": "phospho-Ser520-DYRK1A (Homo sapiens, UniProt Q13627)", "Quantity measured": "IC50", "Unit symbol": "µM", "Result": 0.0325}
{"Cpd smiles": "Cc1nc(NCc2cccc3c2OCO3)c2c(-c3ccnc(N)n3)c[nH]c2n1", "Study system": "phospho-Ser520-DYRK1A (Homo sapiens, UniProt Q13627)", "Quantity measured": "IC50", "Unit symbol": "µM", "Result": 0.0041}

# ---- query molecule ----
State, in one line, measured IC50 of C#Cc1cc(-c2ccc3c(c2)OCO3)c2c(-c3ccnc(N)c3)c[nH]c2n1
0.193

Where do the numbers come from? From patent US20180273538A1.
